molecular target: UniProtKB P41595
Sequence (P41595 whole entry): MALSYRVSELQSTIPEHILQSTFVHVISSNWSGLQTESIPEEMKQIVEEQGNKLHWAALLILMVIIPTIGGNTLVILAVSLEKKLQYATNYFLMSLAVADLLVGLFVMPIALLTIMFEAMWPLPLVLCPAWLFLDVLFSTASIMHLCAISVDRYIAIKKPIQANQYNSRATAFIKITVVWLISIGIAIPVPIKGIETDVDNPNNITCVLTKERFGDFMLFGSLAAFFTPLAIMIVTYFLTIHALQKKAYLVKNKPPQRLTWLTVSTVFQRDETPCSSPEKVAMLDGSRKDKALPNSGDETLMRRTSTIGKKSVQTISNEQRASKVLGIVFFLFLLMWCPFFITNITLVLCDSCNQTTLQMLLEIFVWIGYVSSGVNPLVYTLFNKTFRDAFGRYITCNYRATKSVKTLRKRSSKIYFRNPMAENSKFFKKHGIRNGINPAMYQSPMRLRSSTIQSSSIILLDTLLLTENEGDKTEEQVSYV
REPORTED_METRIC: Ki (nM)
Number only, in nM; omit the unit.

Note down Ki recorded for COc1ccc(NC(=O)c2ccc(-c3ccc(-c4noc(C)n4)cc3C)cc2)cc1OCCN(C)C
1580

----------
Data export: Ki values recorded with UniProt P34969.
Sequence (P34969 whole entry): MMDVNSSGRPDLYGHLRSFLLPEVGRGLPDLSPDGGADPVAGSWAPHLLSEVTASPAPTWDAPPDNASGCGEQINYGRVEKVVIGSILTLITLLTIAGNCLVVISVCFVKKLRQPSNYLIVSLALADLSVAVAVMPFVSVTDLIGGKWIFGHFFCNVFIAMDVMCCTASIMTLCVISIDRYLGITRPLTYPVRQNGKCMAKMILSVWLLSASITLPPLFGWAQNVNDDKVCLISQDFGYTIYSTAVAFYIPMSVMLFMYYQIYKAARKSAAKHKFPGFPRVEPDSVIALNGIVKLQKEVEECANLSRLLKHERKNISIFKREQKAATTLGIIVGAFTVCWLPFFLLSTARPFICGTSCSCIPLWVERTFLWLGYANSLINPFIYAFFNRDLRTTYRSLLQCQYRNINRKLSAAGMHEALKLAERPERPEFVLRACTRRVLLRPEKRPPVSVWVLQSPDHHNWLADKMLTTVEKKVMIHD
Number only, in µM; omit the unit.

Note down Ki recorded for COc1ccc(NC(=O)c2ccc(-c3ccc(-c4noc(C)n4)cc3C)cc2)cc1N1CCN(C)CC1
0.631

Note down Ki recorded for OC(CN1CCN(c2cccc(Cl)c2)CC1)C(c1ccccc1)c1ccccc1 (stereo not drawn)
0.501

----------
What Ki was measured for each of the following?
Number only, in µM; omit the unit.

State Ki on UniProt P28566. Entry: OC(CN1CCN(c2cccc(Cl)c2)CC1)C(c1ccccc1)c1ccccc1 (configuration not stated)
Sequence (P28566 whole entry): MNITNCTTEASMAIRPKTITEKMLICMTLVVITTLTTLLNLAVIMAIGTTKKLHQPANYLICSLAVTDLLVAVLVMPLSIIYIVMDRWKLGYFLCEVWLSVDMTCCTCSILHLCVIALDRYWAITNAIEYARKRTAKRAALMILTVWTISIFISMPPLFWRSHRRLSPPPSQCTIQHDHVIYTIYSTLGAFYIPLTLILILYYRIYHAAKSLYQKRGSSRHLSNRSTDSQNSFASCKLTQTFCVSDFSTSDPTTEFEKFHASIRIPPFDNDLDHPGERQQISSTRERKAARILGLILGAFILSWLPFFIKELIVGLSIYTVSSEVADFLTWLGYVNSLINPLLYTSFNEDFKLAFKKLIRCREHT
6.31

State Ki on UniProt P28566. Entry: COc1ccc(NC(=O)c2ccc(-c3ccc(-c4noc(C)n4)cc3C)cc2)cc1OCCN(C)C [CAS_3292447]
1
